experiment: TOR pathway RPL19A-GFP modulators, concentration series – cell-based, S. cerevisiae, flow cytometry, MLPCN hits, dose response (AID 2740);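 also: background is signal of the same compound in parental non-GFP s288c yeast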; conditions: S. cerevisiae RPL19A-GFP strain, flow cytometry fluorescence, 3 h; at 33 µM (top of the series)
Outcome measure: GFP fluorescence, lower = active (kMESF (background-subtracted))
I only need the number, thanks.

Past entries and their recorded results:
Recorded GFP fluorescence, lower = active (kMESF (background-subtracted)) for "COc1cc(/C=C2\C(=O)ON=C2c2ccccc2)cc(Br)c1O" , please? 37.3

I have this compound here, "CCCc1cc(NCc2ccccn2)n2nc(C)c(-c3ccccc3)c2n1" , and I need its recorded GFP fluorescence, lower = active (kMESF (background-subtracted)). 39.1

Given the entry "CCCS(=O)(=O)c1nnnn1-c1cccc(OC)c1" , report its measured GFP fluorescence, lower = active (kMESF (background-subtracted)). 31.9

Suppose we examine the compound "O=C(Oc1oc(-c2ccco2)nc1C=Nc1ccc(Cl)cc1)c1ccco1" ; what GFP fluorescence, lower = active (kMESF (background-subtracted)) value has been reported? 52.3

So what's the measured GFP fluorescence, lower = active (kMESF (background-subtracted)) for this one? "O=c1c2cc(Br)ccc2nc(-c2ccc([N+](=O)[O-])cc2)n1O" 15.6

# query: GFP fluorescence, lower = active (kMESF (background-subtracted)) of entry "C/C(=N\NC(=O)c1cc2ccccc2cc1O)c1ccccn1" 45.5

So what does the record say about GFP fluorescence, lower = active (kMESF (background-subtracted)) for "COc1cc(/C=C2\CC/C(=C\c3cc(OC)c(O)c(OC)c3)C2=O)cc(OC)c1O" ? 39.6

Given the entry "COc1cc(C=C2C(=O)c3ccccc3C2=O)cc(OC)c1OC" , report its measured GFP fluorescence, lower = active (kMESF (background-subtracted)). 43.2

Others:
Looking for the measured GFP fluorescence, lower = active (kMESF (background-subtracted)) of "Cc1ccnc(N2C(=O)c3cccc4c([N+](=O)[O-])ccc(c34)C2=O)c1" , can you help? 56.1

Quick one: GFP fluorescence, lower = active (kMESF (background-subtracted)) for "C#CCOCCOCCOCCNc1nc(N2CCN(C(=O)CCCCCCCCCCNC(=O)[C@H](CCCCN)n3cc(CCCC(=O)O)nn3)CC2)nc(N2CCN(C(=O)CCCCCCCCCCNC(=O)[C@H](CCCN=C(N)N)n3cc(C[C@@H](C)CC)nn3)CC2)n1" ? 27.1

Value source: PubChem BioAssay AID2740
